Please go through the items and note down their log10(IC50).
Experimental target: P2X purinoceptor 7 (Rattus norvegicus)
Sequence (Q64663 whole entry): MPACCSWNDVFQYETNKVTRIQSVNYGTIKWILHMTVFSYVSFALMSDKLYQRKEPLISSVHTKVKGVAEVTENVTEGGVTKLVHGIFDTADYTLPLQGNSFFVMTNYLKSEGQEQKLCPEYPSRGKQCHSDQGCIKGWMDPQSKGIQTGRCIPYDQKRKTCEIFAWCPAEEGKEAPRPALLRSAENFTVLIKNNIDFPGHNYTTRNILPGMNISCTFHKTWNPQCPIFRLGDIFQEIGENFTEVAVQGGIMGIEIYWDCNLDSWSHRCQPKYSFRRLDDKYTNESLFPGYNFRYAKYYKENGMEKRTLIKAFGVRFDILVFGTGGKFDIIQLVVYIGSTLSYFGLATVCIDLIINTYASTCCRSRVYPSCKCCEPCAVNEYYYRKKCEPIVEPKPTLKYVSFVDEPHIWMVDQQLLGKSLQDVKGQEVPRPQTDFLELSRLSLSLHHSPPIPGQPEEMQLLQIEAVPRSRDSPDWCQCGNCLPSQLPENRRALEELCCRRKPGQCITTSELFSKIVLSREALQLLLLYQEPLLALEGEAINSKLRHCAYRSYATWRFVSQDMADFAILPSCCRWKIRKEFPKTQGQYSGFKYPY
Test method notes: Antagonist activity at rat recombinant P2X7 receptor assessed as inhibition of BzATP induced calcium flux by FLIPR assay
Short version: log10 scale, IC50, µM.

Form field: reported log10(IC50) of Cc1ccccc1N=C(NC#N)N1CCN(C(=O)Nc2ccc(Cl)cc2)CC1C(C)C (stereo not drawn)
-0.90

Form field: reported log10(IC50) of CC(C)C1CN(C(=O)Nc2ccc(Cl)cc2)CCN1C(=Nc1cccc2ncccc12)NC#N (stereo not drawn)
-1.24

Form field: reported log10(IC50) of CC(C)C1CN(C(=O)Nc2ccc(Cl)cc2)CCN1/C(=N/C#N)Nc1cccc2[nH]ccc12 (stereo not drawn)
-0.96

Form field: reported log10(IC50) of Cc1ccccc1N/C(=N/C(N)=O)N1CCN(C(=O)Nc2ccc(Cl)cc2)C(c2ccccc2)C1 (stereo not drawn)
1.01

Form field: reported log10(IC50) of N#C/N=C(\Nc1cccnc1)N1CCN(C(=O)Nc2ccc(Cl)cc2)C(c2ccccc2)C1 (stereo not drawn)
0.31

Form field: reported log10(IC50) of Cc1ccccc1N/C(=C/[N+](=O)[O-])N1CCN(C(=O)Nc2ccc(Cl)cc2)C(c2ccccc2)C1 (stereo not drawn)
0.49

Form field: reported log10(IC50) of Cc1ccccc1N=C(NC#N)N1CCN(S(=O)(=O)c2ccc(Cl)cc2)C(c2ccccc2)C1 (stereo not drawn)
0.61

Form field: reported log10(IC50) of Cc1ccccc1N=C(NC#N)N1CCN(C(=O)N(C)c2ccc(Cl)cc2)C(c2ccccc2)C1 (stereo not drawn)
-0.54

Form field: reported log10(IC50) of CC(C)C1CN(C(=Nc2cccc3ncccc23)NC#N)CCN1C(=O)Nc1ccc(Cl)cc1 (stereo not drawn)
-1.03

Form field: reported log10(IC50) of Cc1ccccc1N/C(=N\C#N)N1CCN(C(=O)Nc2ccc(Cl)cc2)C(C(C)C)C1 (stereo not drawn)
-0.96

Form field: reported log10(IC50) of CC(C)C1CN(C(=O)Nc2ccc(Cl)cc2)CCN1C(=Nc1cccc2c1CCNC2)NC#N (stereo not drawn)
-0.74

Form field: reported log10(IC50) of Cn1cnc2c(N=C(NC#N)N3CCN(C(=O)Nc4ccc(Cl)cc4)C(c4ccccc4)C3)cccc21 (stereo not drawn)
0.72
